# EXPERIMENTAL_TARGET: human Claudin18.2 (CLDN18.2) (human, UniProt P56856 1-261)
# EXPERIMENTAL_DETAILS: cell-based or functional assay
The binders listed here are annotated with their Max tumor cell killing (% of control), ADCC.

// known answers, use as guide
chAb20 (antibody, V domains shown) VH: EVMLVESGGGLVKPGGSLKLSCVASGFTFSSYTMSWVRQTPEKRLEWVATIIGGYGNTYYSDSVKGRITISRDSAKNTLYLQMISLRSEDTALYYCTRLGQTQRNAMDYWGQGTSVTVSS VL: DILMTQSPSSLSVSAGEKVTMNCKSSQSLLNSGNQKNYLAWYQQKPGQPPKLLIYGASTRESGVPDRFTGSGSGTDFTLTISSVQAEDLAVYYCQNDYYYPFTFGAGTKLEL | 62.9 % of control
chAb17 (antibody, V domains shown) VH: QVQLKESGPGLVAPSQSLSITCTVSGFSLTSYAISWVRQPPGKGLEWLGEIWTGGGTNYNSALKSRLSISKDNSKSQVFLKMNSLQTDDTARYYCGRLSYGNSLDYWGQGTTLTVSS VL: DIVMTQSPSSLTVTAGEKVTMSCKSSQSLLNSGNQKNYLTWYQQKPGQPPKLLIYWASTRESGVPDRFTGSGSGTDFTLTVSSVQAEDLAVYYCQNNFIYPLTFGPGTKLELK | 60.6 % of control

Let us examine a further case.
Quick one: Max tumor cell killing (% of control), ADCC of chAb15 (antibody, V domains shown) VH: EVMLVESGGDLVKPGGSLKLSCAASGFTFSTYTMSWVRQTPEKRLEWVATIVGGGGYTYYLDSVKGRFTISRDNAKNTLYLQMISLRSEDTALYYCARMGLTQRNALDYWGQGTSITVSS VL: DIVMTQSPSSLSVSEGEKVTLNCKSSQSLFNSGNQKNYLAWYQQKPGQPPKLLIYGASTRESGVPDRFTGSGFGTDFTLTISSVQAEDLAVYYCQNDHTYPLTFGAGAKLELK ?
36.5 % of control
